biological target: fusion glycoprotein (F) of RSV B GFP (Tables 41 and 42) (respiratory syncytial virus B); assay: cell-based or functional assay
Rule: IC50 (ng/ml), RSV B GFP neutralization below 5 ng/mL gives Fulfilled. Equal to or above 5 ng/mL gives Not fulfilled.

Does the reported IC50 (ng/ml), RSV B GFP neutralization of MPK77-rIgG1-LS (antibody, V domains shown) VH: EVQLVESGGGLVKPGGSLRLSCAASKSFSGYYMIWIRQAPGRGLEWIADISGSSTYTDYADSVKGRFTISRDNTRNTLYLQMNSLRPEDTAVYYCATEQVPSPGPFDLWGPGTLVTVSS VL: QSVLTQPPSVSGAPGQRVIISCTGSSSNIGAGYDVHWYQQFPGTSPKLLIYRNTNRPSGVPDRFSGFKSGASAALAITGLQAEDEADYYCQSYDRSLSGWAFGGGTKVTVL stay below 5 ng/mL? Not fulfilled

Does the reported IC50 (ng/ml), RSV B GFP neutralization of RSD5-FR-GL-rIgG1 (antibody, V domains shown, Germline-reverted version of RSD5 (framework regions), recombinant IgG1; also called RSD5-FR-GL-rlgG1) VH: QVQLVESGGGVVQPGRSLRLSCAASGFAFNNFAMHWVRQAPGKGLEWVAVVSYDGTSPYYADSVKGRFTISRDNSKNTLYLQMNSLRAEDTAVYYCARGLGSGSYSWIGYFYAMDVWGQGTTVTVSS VL: QSALTQPASVSGSPGQSITISCTGTSSDVGGYVYVSWYQQHPGKAPKLMIYDVSNRPSGVSNRFSGSKSGNTASLTISGLQAEDEADYYCISYTDRNTVVFGGGTKLTVL stay below 5 ng/mL? Fulfilled

Does the reported IC50 (ng/ml), RSV B GFP neutralization of MPK104-rIgG1-LS (antibody, V domains shown) VH: EVQLVESGGGLVKPGGSLRLSCAASGFTIDGYGMNWVRQAPGKGLEWVSSISASSNYIYYADSMKGRFTISRDNGKNSLYLQMHSLRVEDTGVYYCARAPLEPPYFDLWGRGTLVTVSS VL: QSVLTQPPSVSGAPGQRVTISCSGGSSNIGAGYDVHWYQQVPGKGPKVLIYGNNNRPSGVPDRFSGSNFGASASLAITGLQADDEADYFCQSYDRRLGGPVFGGGTKLTVL stay below 5 ng/mL? Not fulfilled

Does the reported IC50 (ng/ml), RSV B GFP neutralization of MPK190-v1.3-rIgG1m17,1-LS (antibody, V domains shown, also called MPK190-v1.3-rIgG1-LS) VH: QVQLVESGGGLVKPGGSLTLSCAASGFSISGYGMNWVRQAPGRGLEWVASISASSTYIYYADSMKGRFTISRDNGKTSLYLQMKSLRAEDTAVYYCARAPIEPPYFDLWGRGTLVTVSS VL: QSVLTQPPSVSGAPGQRVTISCTGSSSNIGAGYDVHWYQHLPGKAPKVLIYGNTNRPSVVPDRFSGSNSGASASLAISGLQAEDEADYFCQSYDRRLSGPIFGGGTKLTVLG stay below 5 ng/mL? Fulfilled

Does the reported IC50 (ng/ml), RSV B GFP neutralization of MPH12-rIgG1-LS (antibody, V domains shown) VH: QVQLVESGGGLVKPGGSLRLSCVASGFTFSGFYMKWIRQAPGKGLEWVSSISASGSYTNYADSVEGRFTVSRDNAKNSLFLLMSSLRAEDTAVYYCARGDSYCGASACHGEFFHKWGQGTLVTVSS VL: QSVLTQPPSVSGAPGQRVTISCTGSDSNIGADFDVHWYQQLPGTAPKLLIYGNINRPSGVPDRFSGSRSGTSAFLAITRLQAEDEADYYCQSYDRSLHYVFGAGTKVTVL stay below 5 ng/mL? Not fulfilled

Does the reported IC50 (ng/ml), RSV B GFP neutralization of MPK190-v1.1-rIgG1m17,1-LS (antibody, V domains shown, also called MPK190-v1.1-rIgG1-LS) VH: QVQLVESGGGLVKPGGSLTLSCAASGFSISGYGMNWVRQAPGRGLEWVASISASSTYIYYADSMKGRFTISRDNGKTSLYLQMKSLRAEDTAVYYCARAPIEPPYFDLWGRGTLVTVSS VL: QSVLTQPPSVSGAPGQRVTISCTGSNSNIGAGYDVHWYQHLPGKAPKVLIYGNNNRPSVVPDRFSGSNSGASASLAISGLQAEDEADYFCQSYDRRLSGPIFGGGTKLTVL stay below 5 ng/mL? Fulfilled

Does the reported IC50 (ng/ml), RSV B GFP neutralization of MPK104-v1.3-rIgG1m17,1-LS (antibody, V domains shown, also called MPK104-v1.3-rIgG1-LS) VH: QVQLVESGGGLVKPGGSLRLSCAASGFTIDGYGMNWVRQAPGKGLEWVSSISASSNYIYYADSMKGRFTISRDNGKNSLYLQMHSLRVEDTGVYYCARAPLEPPYFDLWGRGTLVTVSS VL: QSVLTQPPSVSGAPGQRVTISCSGGSSNIGAGYDVHWYQQVPGKGPKVLIYGNTNRPSGVPDRFSGSNFGASASLAITGLQAEDEADYFCQSYDRRLGGPVFGGGTKLTVL stay below 5 ng/mL? Not fulfilled
